All figures here come from PubChem BioAssay.

Give nuclear beta-catenin stimulation for every item shown.
test: stimulators of nuclear beta-catenin in C2C12, primary screen, imaging, WNT3A-conditioned medium, mouse C2C12, NPC library (AID 1117326); details: stimulation, at 2 µM, stronger effect = higher value
Starred links: 1 amine or outer side, 2 acyl side, 3 side chain; linkers in the order of their positions; H or OH if unused. Positions of bridges follow the written chain, without caps; N, C: chain ends. Non-standard residues stand in square brackets, D forms with d. Residues, ends and D or L forms follow the SMILES beside them. ξ: configuration not given here. *: point of attachment. ΔAla(3-NHCONH2) = NC(=O)NC=C(N)C(=O)O; X1 = NC1=NCCC(C(N[*:1])C(=O)[*:2])N1; ξβ3hOrn = NCCCC(N)CC(=O)*; Dap = NC[CH](N)C(=O)O
Numbers only, in %.

Solved entries (count: 5):
compound=CC(=O)OCC(=O)Nc1cc(C#N)cc(NC(=O)COC(C)=O)c1Cl unitsymbol=% measurednumber=-1.4
compound=CCN1CCN(C(=O)N[C@@H](C(=O)N[C@@H]2C(=O)N3[C@@H]2SC(C)(C)[C@H]3C(=O)O)c2ccccc2)C(=O)C1=O unitsymbol=% measurednumber=0.9
compound=CCOc1ccc(NS(=O)(=O)c2ccc(N)cc2)nn1 unitsymbol=% measurednumber=0.4
compound=C/C=C/C(=O)N(CC)c1ccccc1C unitsymbol=% measurednumber=0.9
compound=Nc1ccc(C(=O)N2CC3CC(CN(Cc4ccccc4)C3)C2)cc1 unitsymbol=% measurednumber=0.5

Would you mind giving nuclear beta-catenin stimulation for every compound in the list below?
1. COc1ccc2cc(Br)ccc2c1
2. CC(=O)O[C@]1(C(C)=O)CC[C@H]2[C@@H]3C=C(C)C4=CC(=O)CC[C@]4(C)[C@H]3CC[C@@]21C
3. C[C@]12C=CC(=O)C=C1[C@@H](F)C[C@@H]1[C@@H]2[C@@H](O)C[C@@]2(C)[C@H]1CC[C@]2(O)C(=O)CO
4. NCCCC(N)CC(=O)NCC1NC(=O)C(CO)NC(=O)C(N)CNC(=O)C(C2CCN=C(N)N2)NC(=O)C(=CNC(N)=O)NC1=O (stereo not drawn) (H-[Dap]S[Dap](ξβ3hOrn)[ΔAla(3-NHCONH2)][X1]; lactam 1-C; configuration not given here)
5. O=C(O)Cc1cn(-c2ccccc2)nc1-c1ccc(Cl)cc1

Response:
1. -0.3
2. 1.9
3. -0.6
4. 1.8
5. 1.2

Would you mind giving nuclear beta-catenin stimulation for every compound in the list below?
1. CC(C)[C@H](N)C(=O)O
2. CC[C@@H]([C@H](C)O)n1ncn(-c2ccc(N3CCN(c4ccc(OC[C@@H]5CO[C@@](Cn6cncn6)(c6ccc(F)cc6F)C5)cc4)CC3)cc2)c1=O
3. CC(C)(C)c1nnc(NS(=O)(=O)c2ccccc2)s1
4. O=C1Nc2cc(Cl)ccc2Oc2ccccc21

Response:
[1.3, 8.2, 1.5, -0.5]

Would you mind giving nuclear beta-catenin stimulation for every compound in the list below?
1. NNC(=O)c1ccncc1
2. CCCCCCCC/C=C/C(=O)O
3. CCC(C(=O)NC(=O)NC(C)=O)c1ccccc1 (stereo not given)
4. CCOc1ccc2ccccc2c1C(=O)N[C@@H]1C(=O)N2[C@@H]1SC(C)(C)[C@@H]2C(=O)O
5. NCC(=O)O

Response:
[-1.2, 0.6, 0.2, 0.1, 4]

Prompt: State the recorded nuclear beta-catenin stimulation for this entry: CC(O)CCCCn1c(=O)c2c(ncn2C)n(C)c1=O (stereo not given)
Response: 3.3

###

assay: IRF3 reporter activation in THP-1 macrophages, cell-based, PMA-stimulated THP-1, luminescence (AID 1053176); settings: PMA-differentiated THP-1, IRF3 reporter luminescence; stronger effect = higher value
Is fraction signal at least -0.003? Then Condition met. If not, Condition not met.

Prompt: hey, is fraction signal for this one >= -0.003? Nc1c(C(=O)c2cccc(C(O)(CO)CO)c2)cnn1-c1ccc(F)cc1
Response: Condition met

Prompt: hey, is fraction signal for this one >= -0.003? Nc1ncnc2occ(-c3ccc(NC(=O)Nc4cc(C(F)(F)F)cc(C(F)(F)F)c4)cc3)c12
Response: Condition not met

Prompt: hey, is fraction signal for this one >= -0.003? COc1cc[nH]c1C=C1C(=O)Nc2ccc(F)c(C#CC3(O)CCNCC3)c21
Response: Condition not met

Prompt: hey, is fraction signal for this one >= -0.003? COc1ccc(-c2ccc3c(NC(=O)C4CC4)n[nH]c3n2)cc1
Response: Condition met

Prompt: hey, is fraction signal for this one >= -0.003? CNC(=O)c1cncc(/C=C/c2c(Cl)cccc2Cl)c1
Response: Condition met

###

assay: kinase inhibitors against Plasmodium liver-stage infection, cell-based, known kinase inhibitor set, luminescence, hepatoma host viability (AID 624392); details: Plasmodium liver stage in hepatoma cells, luciferase luminescence, concentration not given here; measured here: host liver cell viability;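 note: infected cells incubated roughly two days before readout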
parameterMeasured: liver cell % of control (%)
Answers are plain numbers, in %.

Solved entries (count: 5):
molecule="NS(=O)(=O)c1ccc(NC2CC(c3cccc(O)c3)NN2)cc1 (configuration not stated)" measurednumber=92.2
molecule=COc1cc(Nc2ncc3c(C)nc(-c4cccc(Oc5ccccc5)c4)n3n2)cc(OC)c1OC measurednumber=92.5
molecule=COc1cc(Nc2nccc(Nc3ccc4c(C)[nH]nc4c3)n2)cc(OC)c1OC measurednumber=142
molecule=NC(=O)c1sc(-n2cnc3ccc(C(F)(F)F)cc32)cc1OCc1ccccc1Br measurednumber=104
molecule=O=C1Nc2ccc(F)c3c(OCCO)cc(-c4ccc[nH]4)c1c23 measurednumber=83.9

Would you mind giving liver cell % of control for every molecule in the list below?
1. COc1ccccc1Nc1ncc(-c2ccccc2)o1
2. CCCN1CCC(c2ccc(Nc3nc(Nc4cc(F)ccc4C(N)=O)c4cc[nH]c4n3)c(OC)c2)CC1
3. COc1cc(/C=N/Nc2ncnc3[nH]ncc23)ccc1O
4. Cc1ccc(NC(=O)c2ccoc2)cc1-c1ccc(C(=O)NCC2CC2)cc1
5. O/N=C1/CCc2cc(-c3nc(C4CCNCC4)[nH]c3-c3ccncc3)ccc21
6. Cn1cc(C2=C(c3cccnc3)C(=O)NC2=O)c2ccccc21
7. CCn1c(-c2nonc2N)nc2cnc(Oc3cccc(NC(=O)c4ccc(OCCN5CCOCC5)cc4)c3)cc21
8. N#Cc1c(NC(=O)c2ccc(F)cc2)sc2c1CCCC2

Response:
1: 121; 2: 73; 3: 81.7; 4: 104; 5: 105; 6: 312; 7: 80.1; 8: 159

###

experiment: inhibition of endothelial tube formation, primary screen, imaging, VEGF stimulated, CD31 staining, tube area, NPC library (AID 1117340); details: VEGF-stimulated ADSC/ECFC co-culture, at 10 µM
Calls of active or inactive are those of the source.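 The calls were made as follows: active = compound that reduces growth-factor-driven endothelial tube area in a mixed cell culture, no cutoff stated; inactive = the rest.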
Thanks in advance; please answer with one of these: Yes (active), No (inactive)

Prompt: Recorded call for CCCN(CCC)S(=O)(=O)c1ccc(C(=O)O)cc1 ?
Response: No

Prompt: Recorded call for O=C(O)Cc1cccc(-c2cc(CCCCCCc3ccc(O[C@H]4O[C@H](CO)[C@@H](O)[C@H](O)[C@@H]4O)c(-c4cccc(CC(=O)O)c4)c3)ccc2O[C@H]2O[C@H](CO)[C@@H](O)[C@H](O)[C@@H]2O)c1 ?
Response: No

Prompt: Recorded call for O=C(O)COc1nn(Cc2ccccc2)c2ccccc12 ?
Response: No

Prompt: Recorded call for CCC(=O)Oc1ccc2c(c1)CC[C@@H]1[C@H]2CC[C@]2(C)[C@@H](OC(=O)CC)CC[C@@H]12 ?
Response: No

Prompt: Recorded call for O=C1C(c2[nH]c3ccc(S(=O)(=O)O)cc3c2O)=Nc2ccc(S(=O)(=O)O)cc21 ?
Response: No

Prompt: Recorded call for Cc1oc(-c2ccccc2)nc1CCC(=O)c1ccc(CC2SC(=O)NC2=O)cc1 (centres undefined) ?
Response: No

Prompt: Recorded call for O=C(C1CCCCC1)N1CC(=O)N2CCc3ccccc3C2C1 (centres undefined) ?
Response: No

Prompt: Recorded call for O=c1[nH]sc2cc(Cl)ccc12 ?
Response: Yes

Prompt: Recorded call for CC(=O)N/N=C/c1ccc([N+](=O)[O-])o1 ?
Response: No

###

Give inhibition of aggregation for every item shown.
assay: inhibitors of polyQ protein aggregation (AID 1604); settings: polyglutamine-induced protein aggregation inhibition assay; stronger effect = higher value; tested at 2.5 µM

Solved entries (count: 5):
compound=Cc1ccc(S(=O)(=O)NC(=O)NN2CCCCCC2)cc1 result=69.7%
compound=OCCN(CCO)c1nc(N2CCCCC2)c2nc(N(CCO)CCO)nc(N3CCCCC3)c2n1 result=79.2%
compound=Cc1ccc(C)c(OCCCC(C)(C)C(=O)O)c1 result=39.4%
compound=N[C@@H]1CONC1=O result=65.4%
compound=Nc1nc2ncc(CNc3ccc(C(=O)N[C@@H](CCC(=O)O)C(=O)O)cc3)nc2c(=O)[nH]1 result=77.8%

Would you mind giving inhibition of aggregation for every compound in the list below?
1. CC(C)(C)NCC(O)c1cc(O)cc(O)c1 (stereo unspecified)
2. CN[C@@H]1[C@H](O)[C@H](NC)[C@H]2O[C@@]3(O)C(=O)C[C@@H](C)O[C@H]3O[C@@H]2[C@H]1O
3. O=c1n(CCCN2CCN(c3cccc(Cl)c3)CC2)nc2ccccn12
4. COc1ccc(OC)c(C(O)CNC(=O)CN)c1 (stereo unspecified)
5. O=C1CCC(N2C(=O)c3ccccc3C2=O)C(=O)N1 (stereo unspecified)

Response:
1. 47.9%
2. 14.3%
3. -2.89%
4. 41.7%
5. 81%

Prompt: State the recorded inhibition of aggregation for this entry: CN(C)C(=O)Oc1ccc[n+](C)c1
Response: 27%
